Give koff for every item shown.
# System tested: human full-length VWF (human, UniProt P04275 764-2813)
# Assay comment: SPR, Biacore T200, antibody captured on Protein A, full-length VWF as analyte, single-cycle kinetics
Number first, unit second: that is the form wanted.

Read off the recorded koff for 1-D5_H0_L0 (antibody, human IgG1, kappa, V domains shown, humanised, human IgG1 kappa) VH: QVQLVESGGGVVQPGRSLRLSCAASGFTFSNYIMGWVRQAPGKGLEWVAIISTGGSTYYASWAKGRFTISRDNSKNTLYLQMNSLRAEDTAVYYCARGGSSAGAGFNIWGQGTLVTVSS VL: DIQMTQSPSSLSASVGDRVTITCQASQSINSGLAWYQQKPGKAPKLLIYKASTLASGVPSRFSGSGSGTDFTLTISSLQPEDFATYYCQSYHYISANGATFGGGTKVEIKT
1.13e-08 s⁻¹

Read off the recorded koff for 4-H3_H4_L1 (antibody, human IgG1, kappa, V domains shown, humanised, human IgG1 kappa) VH: QVQLVESGGGVVQPGRSLRLSCAASGIDLTSNAMNWVRQAPGKGLEWVAGIYGHDTSYYAAWAKGRFTISRDNSKNTLYLQMNSLRAEDTATYFCARGFIYFDIWGQGTLVTVSS VL: DYQMTQSPSSLSASVGDRVTITCLASEDIASGISWYQQKPGKAPKLLIYGASNLESGVPSRFSGSGSGTDYTLTISSLQPEDFATYYCLGGYSFSSNGLTFGGGTKVEIKT
6.25e-09 s⁻¹

Read off the recorded koff for 1-D5_H2_L1 (antibody, human IgG1, kappa, V domains shown, humanised, human IgG1 kappa) VH: QQQLVESGGGVVQPGRSLRLSCAASGFSLNNYIMGWVRQAPGKGLEYIGIISTGGSTYYASWAKGRFTISRDSNTMYLQMNSLRAEDTATYFCARGGSSAGAGFNIWGQGTLVTVSS VL: DIQMTQSPSSLSASVGDRVTITCQASQSINSGLAWYQQKPGKAPKRLIYKASTLASGVPSRFSGSGSGTDFTLTISSLQPEDFATYYCQSYHYISANGATFGGGTKVEIKT
1.13e-05 s⁻¹
